// reported Percent Effect per item
Test system: Trypanosoma brucei
protocol description: Trypanosoma brucei 72 hour study
Type: functional, organism-based
Design: scale not given: in the data most compounds retested in dose-response had high values
condition: 30.3 µM; […]
The whole screen tested about 66,000 compounds, of which about 960 (1.5%) showed an effect of 50% or more. The sample holds strong results, similar compounds and a random draw of the others, so the mix is not that of the screen.
assay endpoint: Percent Effect (%)

| compound | unit descriptor | readout number |
| --- | --- | --- |
| CN(C)S(=O)(=O)c1cccc(CNc2cc(CO)ccc2Cl)c1 | % | 18.15 |
| OC1(CNCCN2CCCc3ccccc32)CCNC1 (configuration not stated) | % | 6.012 |
| CCN1CCCC(O)(c2nc(C)c(CCOc3ccc(F)cc3)s2)CC1 (configuration not stated) | % | -11.99 |
| Cc1nc(C)n(C2CCCN(C(=O)c3cscn3)C2)n1 (configuration not stated) | % | -21.61 |
| CCOCc1cnc2n1CCN(C(=O)c1ccoc1C)C2C (configuration not stated) | % | -34.9 |
| Nc1cc(N2CCC(c3cc(Cc4ccccc4)n[nH]3)CC2)ccn1 | % | 99.46 |
| Cc1ncoc1C(=O)N1CCn2c(COCC3CC3)cnc2C1C (configuration not stated) | % | 10.54 |
| Cl.Cl.c1cn(-c2cnc(C3CCNCC3)cn2)cn1 | % | -23.68 |
| Nc1nc(O)cc(N2CCC(c3cc(Cc4ccccc4)n[nH]3)CC2)n1 | % | -102.6 |
| Cc1nc(C2(O)CCCNCC2)sc1CCOc1ccc(Cl)cc1.Cl (configuration not stated) | % | 101.5 |
| CCOC1COC2(CCN(Cc3ccc(C)c(C)c3)CC2)C1.O=C(O)C(F)(F)F (configuration not stated) | % | 17.79 |
| CC(C)N(C)Cc1cnc2n1CCN(Cc1cccc(F)c1)C2.O=C(O)C(F)(F)F.O=C(O)C(F)(F)F | % | -6.591 |
| COCCN1CCn2c(CN(C)C(C)C)cnc2C1.O=C(O)C(F)(F)F.O=C(O)C(F)(F)F | % | 0.5782 |
| COc1ccc(OCCc2sc(C3(O)CCCNCC3)nc2C)cc1.Cl (configuration not stated) | % | 34.01 |
| Cc1cccc(CN2CCC3(CC2)NC(=O)C[C@H]3c2cnn(C)c2)n1.O=C(O)C(F)(F)F | % | -5.843 |
| CCc1cc(CNC(=O)c2cc(NC(=O)C(C)C)ccc2Cl)[nH]n1 | % | 61.59 |
| OC1(CNCCCN2CCc3ccccc32)CCNC1 (configuration not stated) | % | 99.09 |
| COc1ccc(CN(Cc2c[nH]cn2)CC2CCCO2)c(OC)c1.O=C(O)CC(O)(CC(=O)O)C(=O)O (configuration not stated) | % | 4.059 |
| CS(=O)(=O)NCc1nnc2n1CCN(Cc1cccs1)CC2.O=C(O)C(F)(F)F | % | -150.1 |
| Cc1ccc(S(=O)(=O)N2C[C@H]3C[C@H](NC(=O)c4cnn(C)c4)[C@H]3C2)cc1 | % | -2.175 |
| Nc1nccc(N2CCC(c3cc(Cc4ccccc4)n[nH]3)CC2)n1 | % | 36.98 |
| COc1ccc(OCc2sc(C3(O)CCCNCC3)nc2C)cc1.Cl (configuration not stated) | % | 57.18 |

* * *

Test system: Trypanosoma brucei
protocol description: Trypanosoma brucei 72 hour study
Type: functional, organism-based
Set-up: scale not given: in the data most compounds retested in dose-response had high values
condition: 30.3 µM; […]
Hit rate of the full screen: of about 66,000 compounds, about 960 (1.5%) showed an effect of 50% or more. This is one part of a sample in which strong results are shown more often than they occur.
assay endpoint: Percent Effect (%)

| molecule | unit descriptor | readout number |
| --- | --- | --- |
| Cc1cnc(-c2nc(C3CCCN(Cc4ccccc4C)C3)no2)cn1.Cl (stereo unspecified) | % | -19.46 |
| Nc1c(N2CCOCC2)ncnc1N1CCOCC1 | % | -8.78 |
| CC(=O)NCC(=O)N1CCCC(C(=O)c2ccc(C(C)(C)C)cc2)C1 (stereo unspecified) | % | -72.68 |
| Cc1nc(C2CCCNC2)cc(N(C)CCc2ccccc2)n1 (stereo unspecified) | % | 33.93 |
| Cc1cc(Cc2ccccc2F)cc(C2CCCNC2)n1 (stereo unspecified) | % | 18.5 |
| Cc1nc(NC2CCCCC2)cc(C2CCCNC2)n1.Cl (stereo unspecified) | % | 43.9 |
| CS(=O)(=O)NCc1nnc2n1CCN(Cc1cccnc1)C2 | % | -308.6 |
| Cl.Cn1ccnc1CNC(=O)c1cncc(C2CCNCC2)n1 | % | -8.849 |
| O=C(O)C(F)(F)F.O=C1CC2(CCCCN2C(=O)c2ccncc2)CN1CC1CC1 (stereo unspecified) | % | -11.8 |
| CS(=O)(=O)NCc1nnc2n1CCN(Cc1ccncc1)C2 | % | -346.7 |
| CN1C[C@]2(CC[C@@H](C(=O)N3CCOCC3)CC2)Oc2ccccc2C1=O | % | -18.99 |

* * *

Tested on: Trypanosoma brucei
protocol description: Trypanosoma brucei 72 hour study
Assay type: functional, organism-based
Set-up: scale not given: in the data most compounds retested in dose-response had high values
condition: 30 µM; 30.03 µM
Out of some 66,000 compounds screened, about 960 (1.5%) showed an effect of 50% or more. The sample as a whole holds a higher share of strong results than the screen did.

| molecule | Percent Effect |
| --- | --- |
| O=C(Nc1cnccn1)[C@@H]1COC[C@H]2CN(C3CCC3)C[C@H]21.O=C(O)C(F)(F)F | -9.316% |
| CCN1CCN(C(=O)c2cc(-c3cccn3C)n[nH]2)[C@H]2CS(=O)(=O)C[C@H]21 | -16.48% |
| COc1cccc(-c2n[nH]cc2CNC2CCN(C(C)C)CC2)c1.Cl | -15.13% |
| CN1CCOC(CNCc2c(Cl)nc3ccccn23)C1 (stereo unspecified) | -12.37% |
| Cc1occc1C(=O)N1CCC2(CCN(Cc3ccccn3)C2=O)C1.O=C(O)C(F)(F)F (stereo unspecified) | -18.48% |
| CCNC(=O)c1cnc(Cc2ccc(F)cc2)s1 | 3.769% |
| CCn1cc(CNc2ccc(F)c(N3CCCS3(=O)=O)c2)cn1 | -16.14% |
| COC(=O)CCNC(=O)c1cnc(Cc2ccc(F)cc2)s1 | 3.867% |
| Cc1ccc(CN2CC3(CCN(C(=O)c4cscn4)C3)C2)o1.O=C(O)C(F)(F)F | -9.237% |
| CN1CCOC(CNCc2coc(-c3cccs3)n2)C1 (stereo unspecified) | -23.33% |
| CN1CCOC(CNCc2coc(-c3ccccc3)n2)C1 (stereo unspecified) | -39% |

* * *

Tested on: Trypanosoma brucei
protocol description: Trypanosoma brucei 72 hour study
Format: functional, organism-based
Set-up: scale not given: in the data most compounds retested in dose-response had high values
condition: 30 µM; 30.03 µM
About 960 (1.5%) of roughly 66,000 compounds showed an effect of 50% or more. Many of the other results were omitted from the sample, so strong results are more common in it than they were.
assay endpoint: Percent Effect (%)

| compound | unit descriptor | readout number |
| --- | --- | --- |
| CN(Cc1ccco1)Cc1cncc2c1CCN(c1ncccn1)C2.Cl.Cl | % | 54.64 |
| CC(=O)N1CCC2(CC1)CCN(C(=O)c1cccc(C(F)(F)F)c1)C2 | % | 38.42 |
| CC(C)(C)c1cc(CN2C[C@H]3CC[C@@H]2CN(Cc2cscn2)C3)n[nH]1 | % | 14.03 |
| Cc1cccc(S(=O)(=O)N2CC[C@H]3CO[C@H](CN(C)C)[C@H]3C2)c1.O=C(O)C(F)(F)F | % | 25.11 |
| CC(C)N(C)Cc1cnc2n1CCN(C(=O)Cc1ccsc1)C2.O=C(O)C(F)(F)F | % | -22.47 |
| CCS(=O)(=O)N1CCN(Cc2ccncc2)c2nc(C)ccc2C1.O=C(O)C(F)(F)F.O=C(O)C(F)(F)F | % | 13.64 |
| CCCS(=O)(=O)NCc1nc(C)cc(N2CCCC2)n1 | % | 60.24 |
| CC(C)CN1C[C@H]2CCN(c3ncccn3)CC[C@H]2S1(=O)=O.O=C(O)C(F)(F)F | % | 7.131 |
| Cc1cccc(CNC2CCCc3c2cnn3C)c1.Cl (stereo not given) | % | 5.756 |
| COc1cccc(CN2CCCC2c2ccc[nH]2)c1 (stereo not given) | % | 1.101 |
| CCCn1cc(-c2cc(-c3ccoc3)c(C#N)c(N)n2)c(C)n1 | % | -1.944 |
| O=C(c1ccc[nH]1)N1CCCC(c2cc(C(F)(F)F)[nH]n2)C1 (stereo not given) | % | 38.21 |
| COc1ccc(-n2ccnc2-c2ccc(C(=O)O)s2)cc1CO | % | -62.12 |
| CCCn1cc(-c2cc(-c3cnc(OC)nc3)c(C#N)c(N)n2)c(C)n1 | % | 73.84 |
| CCC(Nc1ncccn1)c1cccnc1 (stereo not given) | % | -16.09 |
| O=C(O)C(F)(F)F.O=C(O)C(F)(F)F.c1ccc(OCc2nnc3n2CCN(CC2CC2)C3)nc1 | % | 16.25 |
| COc1ccc(C(CN2CCN(C)CC2)Nc2ncccn2)cc1 (stereo not given) | % | -24.12 |
| CN(C)S(=O)(=O)N1CCCC(c2cccc(Cc3ccccc3)n2)C1 (stereo not given) | % | -81.93 |
| O=C(NCCNc1ccccn1)N1CCSCC1 | % | -32.01 |
| CCCn1cc(-c2cc(-c3c[nH]cn3)c(C#N)c(N)n2)c(C)n1 | % | 58.89 |
| CC(C)CC1CC(=O)Nc2c1cnn2Cc1ccco1 (stereo not given) | % | -10.02 |
| O=S(=O)(Cc1ccccc1)NCc1nnc2n1CCC2 | % | -38.65 |
| COc1ncc(-c2cc(-c3ccn(C)c3)nc(N)c2C#N)cn1 | % | -14.16 |
| Cl.c1ccc(-c2ccc(C3CNCCO3)nc2)cc1 (stereo not given) | % | -8.657 |
| COc1ccc(Cl)cc1S(=O)(=O)N1C[C@@H]2CC[C@H](C1)N(C)C2=O | % | 12.03 |
| CCS(=O)(=O)NCc1nc(C)cc(N2CCCCC2)n1 | % | -14.09 |
| O=C(NCCc1ccn(-c2ccccc2)n1)N1CCC1 | % | 105.4 |
| Cc1nccc([C@@H]2C[C@@H]3CCN(S(C)(=O)=O)C[C@H]3O2)n1 | % | 53.53 |
| Cn1ncc2c1CCCC2NCc1cccnc1 (stereo not given) | % | -8.249 |
| CCC(O)CN1CCN(C(=O)c2cnn(-c3ccccc3F)c2)CC1 (stereo not given) | % | 22.96 |
| Cc1cnc2c(c1NCc1cccnc1)c(=O)n(C)c(=O)n2C | % | -45.54 |
| NCC(CO)Cc1cccc(OC(F)(F)F)c1 (stereo not given) | % | 97.23 |
| CCOCC1CN(Cc2cccs2)Cc2nn(C)cc21.O=C(O)C(F)(F)F (stereo not given) | % | -3.631 |
| CC(C)C1CC(=O)Nc2c1cnn2Cc1ccco1 (stereo not given) | % | 5.524 |
| Cc1occc1C(=O)NCC(=O)N(C)CCCOc1ccc(F)cc1 | % | 95.62 |
| O=C(c1cnn(-c2ccccc2F)c1)N1CCN(CCO)CC1 | % | 1.358 |
| CCS(=O)(=O)N1CCCC2(CCCN2Cc2cccc(F)c2)C1.O=C(O)C(F)(F)F (stereo not given) | % | -82.26 |
| CC(=O)N1N=C(COc2ccc(Cl)cc2)OC1c1ccccc1 (stereo not given) | % | -14.14 |
| CCS(=O)(=O)NCc1nc(C)cc(N2CCOCC2)n1 | % | -12.8 |
| Cc1occc1C(=O)NCC(=O)NCCCOc1ccc(F)cc1 | % | -42.11 |
| COc1ccccc1NCC(=O)NCc1scnc1C | % | -18.47 |
| CCOC(=O)CCn1cnc2onc(-c3ccc(OC)cc3)c2c1=O | % | -27.94 |
| CCn1cc(-c2cc(-c3cc(CC(=O)O)cs3)nc(N)c2C#N)c(C)n1 | % | -31.42 |
| O=C(O)C(F)(F)F.O=C1COC2(CCN(Cc3ccsc3)CC2)CN1 | % | -11.85 |
| O=C(O)C(F)(F)F.O=S(=O)(c1ccccc1)N1CCC2(CCCN2Cc2cccc(Cl)c2)C1 (stereo not given) | % | -34.57 |

Sourced from ChEMBL document CHEMBL3988442
